- System: Ba/F3-WT (wild type) cells
- protocol: Ba/F3 Proliferation Assay, Ba/F3-WT (wild type) cells with mIL-3 (Resazurin)
- Type: cell-based
- test settings: Mus musculus, BaF3, 48 h, Ba/F3-WT cells +mIL-3, 48-hour incubation
readout type: EC50
Report the figure along with its unit, number first.

The cases that follow already have their EC50 on record.
{"smiles entry": "FC(F)c1csc(-c2cc(OC[C@@H]3CNCCO3)c3cccnc3c2)c1", "observed value": "1.9 µM"}
{"smiles entry": "COCCn1ccc(-c2cc(OC[C@@H]3CNCC4(CC4)O3)c3nccnc3c2)c1", "observed value": "1.85 µM"}
{"smiles entry": "CC(C)(C)n1cc(-c2cc3ncccc3c(OC[C@@H]3CNC[C@@H](C4CC4)O3)n2)cn1", "observed value": "0.985 µM"}

Please look at the following molecule next.
Data point: Cn1cc(-c2cc3ncccc3c(OC[C@H]3CN[C@@H]4CCC[C@@H]4O3)n2)cn1 ; EC50 = 1.9 µM

====

- Tested on: Ba/F3-WT (wild type) cells
- protocol: Ba/F3 Proliferation Assay, Ba/F3-WT (wild type) cells with mIL-3 (Resazurin)
- Type: cell-based
- test settings: Mus musculus, BaF3, 48 h, Ba/F3-WT cells +mIL-3, 48-hour incubation
# maps each entry to its pEC50
To interpret pEC50, take it as minus log10 of a concentration measured in moles per litre.

The examples below pair each entry with its known result.
{"compound": "FC(F)Cn1cc(-c2cc3ncccc3c(OC[C@@H]3CNCCO3)n2)cn1", "observed value": 5.72}
{"compound": "CC(C)(C)n1cc(-c2cc3ncccc3c(OC[C@H]3CN[C@@H]4CCC[C@@H]4O3)n2)cn1 (stereo in doubt)", "observed value": 5.73}
{"compound": "C[C@H]1CO[C@H](COc2nc(-c3cnn(C)c3)cc3ncccc23)CN1 (relative stereo)", "observed value": 5.84}
{"compound": "CC(C)(C)n1cc(-c2cc3ncccc3c(OC[C@@H]3CNC[C@@H](C(F)(F)F)O3)n2)cn1", "observed value": 5.86}

Next:
The compound identified as COCCn1ccc(-c2cc3ncccc3c(OC[C@@H]3CNCC(C)(C)O3)n2)c1 registered its pEC50 at 5.51

====

- System: Ba/F3-WT (wild type) cells
- protocol: Ba/F3 Proliferation Assay, Ba/F3-WT (wild type) cells with mIL-3 (Resazurin)
- Format: cell-based
- test settings: Mus musculus, BaF3, 48 h, Ba/F3-WT cells +mIL-3, 48-hour incubation
pEC50: −log10 of the molar value.
readout type: pEC50

Observe how each entry below is paired with its result.
{"smiles entry": "c1cnc2cc(-c3cc[nH]c3)cc(OC[C@@H]3CNCCO3)c2c1", "observed value": "< 5.00"}
{"smiles entry": "Cn1ccc(-c2cc3ncccc3c(OC[C@@H]3CNC(C)(C)CCO3)n2)c1", "observed value": "< 5.00"}
{"smiles entry": "C[C@@H](Oc1cc(-c2cnn(C(C)(C)C)c2)cc2ncccc12)[C@@H]1CNCCO1", "observed value": 5.73}
{"smiles entry": "C[C@H](Oc1nc(-c2ccn(C)c2)cc2ncccc12)[C@@H]1CNCC(C)(C)O1", "observed value": "< 5.00"}

Shifting focus to the molecule that follows.
Summary line: c1cnc2cc(-c3cnn([C@@H]4CCOC4)c3)nc(OC[C@@H]3CNCCO3)c2c1 , Ba/F3-WT (wild type) cells, reported pEC50 = < 6.00

Reference for the values: patent US20250263408A1
